Recorded ΔA Hb, one value per entry.
# target_system: T1, Hb substrate solution: Hemoglobin Human (Homo sapiens, UniProt P68871+P69905)
# T1 construct: purchased Sigma-Aldrich Co
# T1 sequence (P69905 2-142 limits assumed): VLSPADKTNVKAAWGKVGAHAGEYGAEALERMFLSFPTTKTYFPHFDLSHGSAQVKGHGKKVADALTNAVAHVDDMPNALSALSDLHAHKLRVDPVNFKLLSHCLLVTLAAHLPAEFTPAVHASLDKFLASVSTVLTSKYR
# T1 sequence (P68871 2-147 limits assumed): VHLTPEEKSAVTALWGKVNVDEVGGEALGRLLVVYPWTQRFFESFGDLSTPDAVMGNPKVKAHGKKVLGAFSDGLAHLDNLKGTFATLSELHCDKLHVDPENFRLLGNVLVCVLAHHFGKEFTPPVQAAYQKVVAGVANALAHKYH
# assay_explanation: Activity of various proteases on Hb substrate solution (R-FOD assay)
# Assay type: biochemical
# condition_details: pH 8.0; 37° C. for 60 minutes
assay_readout: ΔA Hb

# molecule, observed_value
rows = [
    ("Alcalase: protease, origin Bacillus (protein, UniProt P00780 106-379, looked up) Subtilisin Carlsberg: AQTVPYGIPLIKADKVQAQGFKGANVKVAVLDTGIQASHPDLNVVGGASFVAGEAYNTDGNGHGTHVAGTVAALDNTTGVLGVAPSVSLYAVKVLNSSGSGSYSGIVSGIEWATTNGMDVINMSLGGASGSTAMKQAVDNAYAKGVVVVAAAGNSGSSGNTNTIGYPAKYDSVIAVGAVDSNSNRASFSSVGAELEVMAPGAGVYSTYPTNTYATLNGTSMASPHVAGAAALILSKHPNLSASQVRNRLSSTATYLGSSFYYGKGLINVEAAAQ", "17 mAbs"),
    ("Trypsin: protease, origin Cow pancreas (protein, UniProt P00760 24-246, looked up) Serine protease 1: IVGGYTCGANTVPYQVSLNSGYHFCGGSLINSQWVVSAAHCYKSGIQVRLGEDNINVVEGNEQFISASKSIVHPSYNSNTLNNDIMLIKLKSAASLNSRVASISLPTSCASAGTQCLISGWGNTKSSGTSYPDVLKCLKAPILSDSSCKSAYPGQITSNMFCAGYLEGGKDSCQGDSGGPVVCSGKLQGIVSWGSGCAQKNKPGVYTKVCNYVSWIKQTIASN", "<1 mAbs"),
    ("Papain: protease, origin Papaya (protein, UniProt P00784 134-345, looked up) Papain: IPEYVDWRQKGAVTPVKNQGSCGSCWAFSAVVTIEGIIKIRTGNLNEYSEQELLDCDRRSYGCNGGYPWSALQLVAQYGIHYRNTYPYEGVQRYCRSREKGPYAAKTDGVRQVQPYNEGALLYSIANQPVSVVLEAAGKDFQLYRGGIFVGPCGNKVDHAVAAVGYGPNYILIKNSWGTGWGENGYIRIKRGTGNSYGVCGLYTSSFYPVKN", "<1 mAbs"),
]
